Give Kd for every item shown.
measured-on: T1, AP2 µ2 C-terminal subdomain (C-µ2), residues 160-435 of rat µ2 (rat, UniProt P84092 160-435)
T1 sequence: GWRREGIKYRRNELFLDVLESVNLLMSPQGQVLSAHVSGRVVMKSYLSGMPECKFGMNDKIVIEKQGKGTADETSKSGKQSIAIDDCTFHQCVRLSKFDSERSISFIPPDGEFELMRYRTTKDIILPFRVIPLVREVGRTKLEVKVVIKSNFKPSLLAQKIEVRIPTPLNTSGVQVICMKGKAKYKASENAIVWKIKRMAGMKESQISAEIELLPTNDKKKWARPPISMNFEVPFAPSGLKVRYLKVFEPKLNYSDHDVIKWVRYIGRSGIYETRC
assay-text: ITC

Data request, read-out Kd, for SYTRFS [transferrin receptor peptide (SYTRFS)]
~15 µM

Endpoint output: Kd of DYQRLN [TGN38 peptide (DYQRLN)] . Value?
~4 µM
